Listing of entries alongside the reported kon.
# measurement target: T1, human E-selectin extracellular domain with 10 His purification tail (human, UniProt P16581 22-556)
# T1 construct: also called soluable human E-selectin extracellular domain; rhE-Selectin
# T1 sequence: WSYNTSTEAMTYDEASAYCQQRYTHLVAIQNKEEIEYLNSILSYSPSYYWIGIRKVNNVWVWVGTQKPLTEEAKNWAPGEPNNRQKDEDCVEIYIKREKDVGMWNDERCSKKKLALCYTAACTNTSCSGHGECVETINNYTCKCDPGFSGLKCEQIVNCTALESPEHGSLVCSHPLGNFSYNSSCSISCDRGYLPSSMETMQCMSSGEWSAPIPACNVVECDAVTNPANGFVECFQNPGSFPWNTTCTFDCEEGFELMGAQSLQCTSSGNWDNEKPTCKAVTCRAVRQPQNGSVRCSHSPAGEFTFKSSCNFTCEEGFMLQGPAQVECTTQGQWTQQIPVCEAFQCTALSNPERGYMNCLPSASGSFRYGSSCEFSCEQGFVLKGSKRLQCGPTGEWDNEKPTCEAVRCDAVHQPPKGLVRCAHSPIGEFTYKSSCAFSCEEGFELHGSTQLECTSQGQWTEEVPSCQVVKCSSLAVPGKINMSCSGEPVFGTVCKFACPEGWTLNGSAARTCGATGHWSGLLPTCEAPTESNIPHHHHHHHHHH
# run description: SPR, antibody captured, E-selectin analyte
// return the numeric value with its unit appended

>  <binder>
optimized anti-E-selectin antibody 1444 (antibody, human IgG1, kappa, V domains shown, effector-null human IgG1, kappa) VH: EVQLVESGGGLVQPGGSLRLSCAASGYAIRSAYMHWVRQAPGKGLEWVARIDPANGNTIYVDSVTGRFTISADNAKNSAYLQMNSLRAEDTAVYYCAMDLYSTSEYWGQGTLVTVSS VL: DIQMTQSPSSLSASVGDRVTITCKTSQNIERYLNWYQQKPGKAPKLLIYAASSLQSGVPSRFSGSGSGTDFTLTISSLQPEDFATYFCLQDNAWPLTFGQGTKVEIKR

>  <result>
264000 M⁻¹ s⁻¹

$$$$
>  <binder>
optimized anti-E-selectin antibody 1282 (antibody, human IgG1, kappa, V domains shown, effector-null human IgG1, kappa) VH: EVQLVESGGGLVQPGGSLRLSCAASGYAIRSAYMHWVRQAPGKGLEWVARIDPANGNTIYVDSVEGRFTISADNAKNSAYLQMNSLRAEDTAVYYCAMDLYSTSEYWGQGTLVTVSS VL: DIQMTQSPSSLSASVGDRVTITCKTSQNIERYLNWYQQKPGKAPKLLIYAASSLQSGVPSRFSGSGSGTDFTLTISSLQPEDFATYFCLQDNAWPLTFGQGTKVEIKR

>  <result>
201000 M⁻¹ s⁻¹

$$$$
>  <binder>
optimized anti-E-selectin antibody 1448 (antibody, human IgG1, kappa, V domains shown, effector-null human IgG1, kappa) VH: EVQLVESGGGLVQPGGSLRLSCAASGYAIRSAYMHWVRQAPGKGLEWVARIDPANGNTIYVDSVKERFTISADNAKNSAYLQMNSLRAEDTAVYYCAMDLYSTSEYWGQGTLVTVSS VL: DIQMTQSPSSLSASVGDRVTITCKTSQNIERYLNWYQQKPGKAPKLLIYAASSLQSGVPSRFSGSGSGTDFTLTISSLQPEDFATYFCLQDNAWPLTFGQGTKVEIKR

>  <result>
210000 M⁻¹ s⁻¹

$$$$

# context switch: different binder, same kon
Request: What kon value was documented for this binder, optimized anti-E-selectin antibody 1284 (antibody, human IgG1, kappa, V domains shown, effector-null human IgG1, kappa) VH: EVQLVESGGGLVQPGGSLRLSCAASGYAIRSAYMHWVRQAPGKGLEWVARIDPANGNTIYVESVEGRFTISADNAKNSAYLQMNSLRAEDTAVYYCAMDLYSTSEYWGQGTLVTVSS VL: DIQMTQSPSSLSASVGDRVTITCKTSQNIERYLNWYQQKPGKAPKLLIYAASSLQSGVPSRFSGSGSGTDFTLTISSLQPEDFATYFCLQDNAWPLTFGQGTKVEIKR ?
Response: 222000 M⁻¹ s⁻¹
